Biological target: rabbit EL (rabbit)
Assay: cell-based or functional assay
Listing: Neutralizing activity IC50 of selected binders
Measurement Name: Neutralizing activity IC50

>>> test_value("14E1 (antibody, mouse IgG1, V domains shown, mouse IgG1 from hybridoma) VH: QVQLQQSGAELVKPGASVRLSCKASGYTFTKYTIHWVKQRSGQGLEWIGWFYPGSDSIKYNEKFKDKATLTADKSSRTVYMELSRLTSEDSAVYFCARHEEYTNSLAYWGQGTLVTVSA VL: DIQMTQTTSSLSASLGDRVTISCRASQDISNYLNWYQQQPDGTVKLLIYYTSRLHSGVPSRFSGSGSGTDYSLTISNLEQEDIATYFCQQGYTLPWTFGGGTNLEIK")
"5.9 nM"
>>> test_value("13B3 (antibody, mouse IgG2a, V domains shown, mouse IgG2a from hybridoma; also called 13B3 (mouse mAb)) VH: EVQLQQSGPELLKPGASVKISCKASGYTFTEYTMHWVKQSHGKSLEWIGSINPYYGGTSYNEKFKDKATLTVDKSSNTAYMEFRSLTSEDCAVYYCARYGNYVGYFDYWGQGTTLTVSS VL: ENVLTQSPAIMSASLGEKVTMSCRASSSVHYMYWYQQKSDASPKLWIYYTSNLAPGVPDRFSGSGSGNSYSLTISSMEGEDAATYYCQQFTSSPYTFGGGTKLEIK")
"13 nM"
>>> test_value("19E7 (antibody, mouse IgG2a, V domains shown, mouse IgG2a from hybridoma; also called 19E1(19E7)) VH: QVQLQQPGSVLVRPGASVKLSCKASGYTFTTYWMHWVKQRPGQGLEWIGEIHPYSGNNNNNEKFKGKATLTVDTSSSTAYVDLSRLTSEDSAVYYCARYDSNYVFAYWGQGTLVTVSA VL: QIVLTQSPAIMSASPGEGVTITCSASSSVSYMHWFQQKPGTSPKLWIYSTSNLASGVPARFSGSGSGTSYSLTISRMEAEDAATYYCQQRDSYLTFGSGTKLEVK")
"5.7 nM"
